# assayed_system: Bcl-2 protein (histag-Bcl-2, UniProtKB P10415) (Homo sapiens (Human), UniProt P10415)
# Sequence (P10415 whole entry): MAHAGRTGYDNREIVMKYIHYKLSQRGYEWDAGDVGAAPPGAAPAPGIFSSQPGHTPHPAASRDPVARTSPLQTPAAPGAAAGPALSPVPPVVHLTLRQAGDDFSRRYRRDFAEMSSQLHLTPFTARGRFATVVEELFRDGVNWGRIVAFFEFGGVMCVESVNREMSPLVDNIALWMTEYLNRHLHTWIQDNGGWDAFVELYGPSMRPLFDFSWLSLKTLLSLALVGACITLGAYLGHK
# method_summary: Inhibition of Bcl-2 by the fluorescence polarisation technique
# Type: binding
# assay_conditions: fluorescence polarisation test; method A, or method B where underlined (underlining not visible); read-out: IC50 (nM) Bcl-2 FP
# Description: Inhibition of Bcl-2 by the fluorescence polarisation technique
Where a name gives a salt, the structure may show the parent alone.
recorded_metric: IC50 (nM)
Report the value in nM with no unit label.

Recall the recorded IC50 for CN1CCN(C[C@@H]2Cc3ccccc3CN2C(=O)c2cc3c(cc2-n2cc(C(=O)N(c4ccccc4)c4ccc(O)cc4)c4ccccc42)OCO3)CC1 [Example 164, dihydrochloride] with Bcl-2 protein (histag-Bcl-2, UniProtKB P10415) (Homo sapiens (Human), UniProt P10415) and state it.
7.8

Recall the recorded IC50 for COc1ccc(C(=O)N2Cc3ccccc3C[C@H]2CN2CCCCC2)c(-n2cc(C(=O)N(c3ccccc3)c3ccc(O)cc3)c3ccccc32)c1 [Example 169, hydrochloride] with Bcl-2 protein (histag-Bcl-2, UniProtKB P10415) (Homo sapiens (Human), UniProt P10415) and state it.
108

Recall the recorded IC50 for Cc1cc(C(=O)N(c2ccccc2)c2ccc(O)cc2)cn1-c1ccc(OC(F)(F)F)cc1C(=O)N1Cc2ccccc2C[C@H]1CN1CCN(C)CC1 with Bcl-2 protein (histag-Bcl-2, UniProtKB P10415) (Homo sapiens (Human), UniProt P10415) and state it.
245
